studyTarget: Gag-Pol polyprotein (Human immunodeficiency virus type 1 group M subtype B (isolate HXB2))
assayExplanation: RNase H inhibition, HIV 1 Gag Pol polyprotein, FRET biochemical assay, screening (AID 372)
conditionDetails: HIV-1 RT RNase H, FRET RNA/DNA substrate fluorescence; at 10 µM; active compounds read high
Among all 100,000 compounds or so, about 770 (0.77%) were called active. The entries come from a sample that favours actives as a whole.
Using inhibition as the sorting value, the categories are class 1 = under 10%, class 2 = from 10% up to 40%, class 3 = 40% and over

Hello team, could you let me know which band the following molecule falls into: CC(=O)NC(NC(=S)Nc1sc2c(c1C#N)CCCC2)C(Cl)(Cl)Cl (stereo not drawn) class 2

Hello team, could you let me know which band the following molecule falls into: O=S(=O)(Nc1nccs1)c1ccc(NC(=S)Nc2ccccc2)cc1 class 1

Hello team, could you let me know which band the following molecule falls into: Cc1cc(C)c2oc(-c3cccc(NC(=O)c4ccc(Cl)cc4)c3)nc2c1 class 3

Hello team, could you let me know which band the following molecule falls into: CCOc1ccccc1OCCCCOc1c(Cl)cc(C)cc1Cl class 2

Hello team, could you let me know which band the following molecule falls into: Cc1cc(C)c2oc(-c3cccc(NC(=O)Cc4ccc(Cl)cc4)c3)nc2c1 class 2

Hello team, could you let me know which band the following molecule falls into: O=C(NC(=S)Nc1ccc(S(=O)(=O)Nc2nccs2)cc1)c1sc2ccccc2c1Cl class 3

Hello team, could you let me know which band the following molecule falls into: CCc1ccc2oc(-c3ccc(NC(=O)c4sc5ccccc5c4Cl)cc3)nc2c1 class 3

Hello team, could you let me know which band the following molecule falls into: Cc1ccc(-c2nc3cc(NC(=O)c4sc5ccccc5c4Cl)ccc3o2)cc1 class 2

Hello team, could you let me know which band the following molecule falls into: COc1c(Cl)cc(C(=O)Nc2cccc(-c3nc4cc(C)cc(C)c4o3)c2)cc1Cl class 2

Hello team, could you let me know which band the following molecule falls into: O=C(Nc1nccs1)c1sc2ccccc2c1Cl class 1

Hello team, could you let me know which band the following molecule falls into: O=C(Nc1ccc(-c2nc3ccccc3o2)cc1)c1cccs1 class 1

Hello team, could you let me know which band the following molecule falls into: CCCC(=O)N1c2c(C)cccc2C(Nc2ccccc2C)CC1C (stereo not drawn) class 2

Hello team, could you let me know which band the following molecule falls into: O=C(Nc1ccc(-c2ccc(Cl)cc2)cc1)C1CC1 class 1

Hello team, could you let me know which band the following molecule falls into: O=C(NC(=S)Nc1ccc(-c2nc3ccccc3o2)cc1)c1cccs1 class 3

Hello team, could you let me know which band the following molecule falls into: Cc1ccc2nc(-c3cccc(NC(=O)c4ccc([N+](=O)[O-])cc4)c3)oc2c1 class 3

Hello team, could you let me know which band the following molecule falls into: CCN(CC)CCOc1c(Cl)cc(C)cc1Cl class 1

Hello team, could you let me know which band the following molecule falls into: COc1ccc(/C=C2/Sc3ccccc3C2=O)cc1 class 1

Hello team, could you let me know which band the following molecule falls into: O=C(Nc1ccc2oc(-c3cccc(F)c3)nc2c1)c1sc2ccccc2c1Cl class 3

Hello team, could you let me know which band the following molecule falls into: Cc1cccc(-c2nc3cc(NC(=O)c4sc5ccccc5c4Cl)ccc3o2)c1 class 2

Hello team, could you let me know which band the following molecule falls into: CN(C)c1ccc(C(c2c[nH]c3ccccc23)c2c[nH]c3ccccc23)cc1 class 2

Hello team, could you let me know which band the following molecule falls into: CCN(CC)CCOc1c(C)cc(Cl)cc1Cl class 1

Hello team, could you let me know which band the following molecule falls into: CCOc1ccccc1OCCOc1ccc(C=O)cc1 class 2

Hello team, could you let me know which band the following molecule falls into: CCOc1ccccc1OCCCOc1c(C)cc(C)cc1Cl class 3
